Tested on: U251 CNS
Test: NCI-60 one-dose screen, 48 h
Condition summary: 10 µM
The panel holds about 83,000 compounds, 20% with a hit somewhere; the sample as a whole holds those more often. Activity calls are given as the source filed them. How the source made its calls: active means growth percent below 10; inactive means the rest.
Would you mind answering with one of these outcomes? active, inactive

INSERT INTO results (compound, test_target, class_assignment) VALUES
  ('Cc1ccc(NC(=O)Nc2nc3ccccc3s2)cc1NC(=O)Nc1nc2ccccc2s1', 'U251 CNS', 'inactive'),
  ('CCN(CC)CCSCCCNc1c2ccc(Cl)cc2nc2ccc(OC)cc12', 'U251 CNS', 'active'),
  ('O=C(O)C(SC(C(=O)O)c1ccccc1)c1ccccc1 (stereo not given)', 'U251 CNS', 'inactive'),
  ('COc1cc2c(cc1OCCCCCCN1CCN(CC(=O)Nc3ccc(Cl)cc3C(=O)c3ccccc3Cl)CC1)N=CC1CCCN1C2=O (stereo not given)', 'U251 CNS', 'active'),
  ('Cc1cc2c(C)c3cc(C)c(N)cc3nc2cc1N', 'U251 CNS', 'inactive');

Each compound tested received a call. Report the one for CC1(C)OC2=C(CC1Br)C(=O)C(=O)c1ccccc12 (stereo not given) . active

Subsequent entry: C=C(NC(=O)C(=C)NC(=O)c1csc(C2=NC3c4csc(n4)C4NC(=O)c5csc(n5)C(C(C)(O)C(C)O)NC(=O)C5CSC(=N5)/C(=C/C)NC(=O)C(C(C)O)NC(=O)c5csc(n5)C3(CC2)NC(=O)C(C)NC(=O)C(=C)NC(=O)C(=C)NC(=O)C(C(C)C)NC2C=Cc3c(C(C)O)cc(nc3C2O)C(=O)OC4C)n1)C(N)=O (stereo not given) active

Subsequent entry: `O=C(O)CCCCSc1ncnc2nc[nH]c12` inactive

Subsequent entry: `Cc1ccc(S(=O)(=O)OCCN(CCOS(=O)(=O)c2ccc(C)cc2)c2c[nH]c(=O)[nH]c2=O)cc1` inactive

Subsequent entry: `CC(=O)CSC(C)=O` inactive

====

Provide the reported growth of each item.
Test system: SK-MEL-28 melanoma
Test: NCI-60 one-dose screen, 48 h (100 = growth as untreated, 0 = no growth, -100 = all killed)
Condition summary: 10 µM
Compounds without any hit were thinned out: in the full panel of roughly 83,000, 20% have a hit.
Give bare numbers, in %.

Please review the following examples before continuing.
INSERT INTO assay_data (compound, display_unit, test_result) VALUES
  ('COc1cc(/C=C\c2cc(OC)c(OC)c(OC)c2)cc(NS(=O)(=O)c2ccc(Cl)cc2)c1OC', '%', 70.8),
  ('CN(C)c1ccc(-c2cc(-c3cccc(NS(C)(=O)=O)c3)nc(N)c2C#N)cc1', '%', 69),
  ('Nc1nc(-c2ccccc2Cl)cc(-c2ccc(Cl)cc2Cl)n1', '%', 88),
  ('CCCCCCN1C(=O)C2=C(c3ccc(Cl)cc3)Nc3c(c(C)nn3-c3ccccc3)C2c2ccccc21 (stereo not given)', '%', 96.4);

Attention now turns to another entry.
Form field: reported growth of `CN(C)CCS(=O)(=O)CCN(C)C` 108

====

Tested on: NCI-H23 lung
Test: NCI-60 one-dose screen, 48 h (100 = growth as untreated, 0 = no growth, -100 = all killed)
Condition summary: 10 µM
About 83,000 compounds went through this panel and 20% of them were active in at least one assay; those are over-represented in the sample as a whole.
Readout kind: growth (%)
One number for each entry, in %.

Please review the following examples before continuing.
INSERT INTO assay_data (molecule, display_unit, test_result) VALUES
  ('CCCCCCCNc1nc(C=O)ncc1-c1ccc(C(F)(F)F)cc1', '%', 99.8),
  ('COc1ccc2c(c1)[n+]([O-])c(C#N)c(NC(=O)c1ccco1)[n+]2[O-]', '%', 99.9),
  ('CC(=O)N(C)c1ccc(Nc2ccc(Nc3ccc(N(C)C(C)=O)cc3)c3c2C(=O)c2ccccc2C3=O)cc1', '%', 87.3),
  ('CCOC(=O)N1C/C(=C/c2ccc(Cl)cc2)C(=O)/C(=C/c2ccc(Cl)cc2)C1', '%', 72.1);

For each of the molecules below, note its growth.
1. COC(=O)C1=NNC(=S)N(c2cc(C)[nH]n2)C(=O)C1
2. CN(C)C(=S)N/N=C\C=N/NC(=S)N(C)C
3. Cc1cc(=O)n2nnc3c4ccccc4ccc3n12
4. O=C1N=NC2=C1c1c3ccccc3c(O)n1CC2
5. COc1ccc(-c2nn(-c3cccc(NC(=O)Nc4ccc(Cl)c(C(F)(F)F)c4)c3)cc2-c2ccncc2)cc1Cl

99.1
62.6
94
96.7
9.49

For each of the molecules below, note its growth.
1. CCN(CC)Cc1cc(Nc2ccnc3cc(Cl)ccc23)ccc1OC
2. CCCCC/C=C/C(=O)CCc1ccc(O)c(OC)c1
3. Cc1ccc(NC(=O)Nc2nc3ccccc3s2)cc1NC(=O)Nc1nc2ccccc2s1
4. C/C(N)=C(\C#N)C(=O)c1ccccc1
5. Cn1c(C(N)=O)cc2c1-c1nc(Nc3ccccc3)ncc1CCC2
6. Nc1c(C(=O)Nc2ccccc2)sc2nc3c(cc12)C(O)CCC3 (configuration not stated)

[87.8, 89.2, 89.5, 104, 52, 37.1]
